Field: Bud development stage, apple branches C2. Provide a value for each of the compounds that follow.
Tested on: Table apple, type Zabergäu-Renette (C2)
ASSAY COMMENT: Greenhouse test, cut apple branches C2 dipped in test solution, bud development stage
Format: in vivo, Malus domestica
Design: key: Stage 0: Buds unchanged; Stage 1: Buds slightly swollen, first green tips visible; Stage 2: strongly swollen, green buds; Stage 3: Buds before breaking open, leaf or flower root already visible; Stage 4: Flower buds fully developed, but still closed, white petals already visible. In the case of the grapevine, stage 4 was the unfolding of the first leaves; Stage 5: Flowers fully open or, in the case of grapevine, unfolding of the flower roots (“Gescheine”) on the fully leafed sprouts
PARTICULARS: T6 (56 d)
Answers are plain numbers.

Completed entries (count: 5):
COC(=O)NC#N.[Na] [Example A-3, Sodium methoxy carbonyl cyanamide]; 4
CC(=O)NC#N.[Na] [Example A-1, Sodium Acetylcyanamide]; 5
CC(C)C(=O)NC#N.[Na] [Example A-7, Sodium isobutyryl cyanamide]; 5
CCCCCC(=O)NC#N.[Na] [Example A-9, Sodium hexanoyl cyanamide]; 5
N#CNC(=O)CCCCC(=O)NC#N.[Na].[Na] [Example A-15]; 5

Here is the next item to consider.
Param readout = Bud development stage, apple branches C2; param system = Table apple, type Zabergäu-Renette (C2); param query = N#CN [cyanamide] ; response: value
5

---

I'd be grateful if you could share measured Bud development stage, wine sprouts C4 for these entries.
System: Grape, type Pinot Noir (C4)
ASSAY COMMENT: Greenhouse test, cut wine sprouts C4 dipped in test solution, bud development stage
Format: in vivo, Vitis vinifera subsp. vinifera
Set-up: key: Stage 0: Buds unchanged; Stage 1: Buds slightly swollen, first green tips visible; Stage 2: strongly swollen, green buds; Stage 3: Buds before breaking open, leaf or flower root already visible; Stage 4: Flower buds fully developed, but still closed, white petals already visible. In the case of the grapevine, stage 4 was the unfolding of the first leaves; Stage 5: Flowers fully open or, in the case of grapevine, unfolding of the flower roots (“Gescheine”) on the fully leafed sprouts
PARTICULARS: T3 (21 d)

N#CN [cyanamide]; 2
N#CNC(=O)CCCCC(=O)NC#N.[Na].[Na]; 0
Cc1ccc(C(=O)NC#N)cc1.[Na] [Example A-13, Sodium-4-methyl-benzoyl-cyanamide]; 0
CC(C)(C)C(=O)NC#N.[Na] [Example A-8, Sodium pivaloyl cyanamide]; 0
CCCCCCCCCCCC(=O)NC#N.[Na] [Example A-10, Sodium dodecanoyl cyanamide]; 0

For every listed record, write down its Bud development stage, wine sprouts C4.
1. N#CNC=O.[Na] [Example A-2, Sodium Formylcyanamide]
2. N#CNC(=O)CCC(=O)NC#N.[Na].[Na]
3. COC(=O)NC#N.[Na] [Example A-3, Sodium methoxy carbonyl cyanamide]

3
0
0

Fill in Bud development stage, wine sprouts C4 for each of the 2 molecules listed.
1. CC(C)C(=O)NC#N.[Na] [Example A-7, Sodium isobutyryl cyanamide]
2. CCCC(=O)NC#N.[Na] [Example A-6, Sodium butyryl cyanamide]

[0, 0]

---

Test system: Table apple, type Boiken apple (C1)
ASSAY COMMENT: Greenhouse test, cut apple branches C1 dipped in test solution, bud development stage
Assay type: in vivo, Malus domestica
Set-up: key: Stage 0: Buds unchanged; Stage 1: Buds slightly swollen, first green tips visible; Stage 2: strongly swollen, green buds; Stage 3: Buds before breaking open, leaf or flower root already visible; Stage 4: Flower buds fully developed, but still closed, white petals already visible. In the case of the grapevine, stage 4 was the unfolding of the first leaves; Stage 5: Flowers fully open or, in the case of grapevine, unfolding of the flower roots (“Gescheine”) on the fully leafed sprouts
PARTICULARS: T4 (27 d)
OBSERVATION TYPE: Bud development stage, apple branches C1

# annotated cases, reported Bud development stage, apple branches C1 shown
N#CN [cyanamide]; 5
N#CNC(=O)CCC(=O)NC#N.[Na].[Na] [Example A-14]; 3
N#CNC=O.[Na] [Example A-2, Sodium Formylcyanamide]; 5
CC(=O)NC#N.[Na] [Example A-1, Sodium Acetylcyanamide]; 3
Cc1ccc(C(=O)NC#N)cc1.[Na] [Example A-13, Sodium-4-methyl-benzoyl-cyanamide]; 1

Could you tell me Bud development stage, apple branches C1 for each of these molecules? They are listed below.
1. CCCCCCCCCCCC(=O)NC#N.[Na] [Example A-10, Sodium dodecanoyl cyanamide]
2. N#CNC(=O)Cc1ccccc1.[Na] [Example A-12, Sodium phenylacetyl cyanamide]
3. CC(C)(C)C(=O)NC#N.[Na] [Example A-8, Sodium pivaloyl cyanamide]
4. CCC(=O)NC#N.[Na] [Example A-5, Sodium propionyl cyanamide]
5. N#CNC(=O)c1ccccc1.[Na] [Example A-4, Sodium benzoyl cyanamide]

5
2
4
5
2

Give measured Bud development stage, apple branches C1 for every item shown.
1. CC(C)C(=O)NC#N.[Na] [Example A-7, Sodium isobutyryl cyanamide]
2. COC(=O)NC#N.[Na] [Example A-3, Sodium methoxy carbonyl cyanamide]
3. CCCC(=O)NC#N.[Na] [Example A-6, Sodium butyryl cyanamide]
4. CCCCCC(=O)NC#N.[Na] [Example A-9, Sodium hexanoyl cyanamide]
5. N#CNC(=O)CCCCC(=O)NC#N.[Na].[Na] [Example A-15]

[5, 3, 5, 2, 2]
